# System: Mus musculus
# TEST_METHOD_NOTES: Analgesic activity in mouse assessed as protection against phenylquinone-induced writhing at 50 mg/kg, po administered 1 hr before phenylquinone challenge measured for 5 mins relative to control
# Assay type: functional
ATTRIBUTE_MEASURED: Activity
# do not omit the unit; it follows the number

MOLECULE	TESTED_ON	RECORDED_RESULT
Oc1ccc(/C=N/c2nnc(CNc3nnc4c5ccccc5nc-4s3)s2)cc1	Mus musculus	16.87%
O=C1CSC(c2ccccc2Cl)N1c1nnc(CNc2nnc3c4ccccc4nc-3s2)s1 (configuration not stated)	Mus musculus	24.67%
COc1ccc(C2C(Cl)C(=O)N2c2nnc(CNc3nnc4c5ccccc5nc-4s3)s2)cc1 (configuration not stated)	Mus musculus	21.27%
COc1ccccc1/C=N/c1nnc(CNc2nnc3c4ccccc4nc-3s2)s1	Mus musculus	22.23%
Cc1ccc(C2C(Cl)C(=O)N2c2nnc(CNc3nnc4c5ccccc5nc-4s3)s2)cc1 (configuration not stated)	Mus musculus	18.76%

[Q] Consider the molecule Clc1ccccc1/C=N/c1nnc(CNc2nnc3c4ccccc4nc-3s2)s1 and give its measured Activity.
[A] 18.66%

[Q] Consider the molecule Cc1ccc(C2SCC(=O)N2c2nnc(CNc3nnc4c5ccccc5nc-4s3)s2)cc1 (configuration not stated) and give its measured Activity.
[A] 22.08%

[Q] Consider the molecule O=C1C(Cl)C(c2ccccc2Cl)N1c1nnc(CNc2nnc3c4ccccc4nc-3s2)s1 (configuration not stated) and give its measured Activity.
[A] 38%

[Q] Consider the molecule CN(C)c1ccc(/C=N/c2nnc(CNc3nnc4c5ccccc5nc-4s3)s2)cc1 and give its measured Activity.
[A] 14.28%

[Q] Consider the molecule O=C1CSC(c2ccc(O)cc2)N1c1nnc(CNc2nnc3c4ccccc4nc-3s2)s1 (configuration not stated) and give its measured Activity.
[A] 9.95%

[Q] Consider the molecule CN(C)c1ccc(C2SCC(=O)N2c2nnc(CNc3nnc4c5ccccc5nc-4s3)s2)cc1 (configuration not stated) and give its measured Activity.
[A] 18%

[Q] Consider the molecule CCCCC1C(=O)N(c2ccccc2)N(c2ccccc2)C1=O and give its measured Activity.
[A] 32.5%
